- assay.protocol: Cytotoxicity in human AZ-521 cells assessed as cell viability after 48 hrs by MTT assay
- Type: functional, cell-based
- experimental.setup: AZ-521, 48 h
endpoint: pIC50
Reminder that pIC50 is minus the log10 of a molar concentration.

# annotated cases, reported pIC50 shown
molecule	pIC50
C=C(CC[C@@H](C(=O)O)[C@H]1CC[C@@]2(C)C3=CC[C@@H](C(=C)C)[C@](C)(CCC(=O)O)C3=CC[C@]12C)C(C)C	4.34
C=C(CC[C@@H](C(=O)OC)[C@H]1[C@H](O)C[C@@]2(C)C3=CC[C@@H](C(=C)C)[C@](C)(CCC(=O)OC)C3=CC[C@]12C)C(C)C [DIMETHYL PORICOATE A]	4.49

Let us move to another entry and its pIC50.
-- ask Fill in pIC50 for record `C=C(CC[C@@H](CO)[C@H]1CC[C@@]2(C)C3=CC[C@H]4C(C)(C)[C@@H](O)CC[C@]4(C)C3=CC[C@]12C)C(C)C`
-- reply 4.90
